Here the recorded IC50 is given for each entry.
assayed-target: hmGluR1 receptor (Homo sapiens)
Construct: expressed in transfected cells
Sequence (Q13255 19-1194): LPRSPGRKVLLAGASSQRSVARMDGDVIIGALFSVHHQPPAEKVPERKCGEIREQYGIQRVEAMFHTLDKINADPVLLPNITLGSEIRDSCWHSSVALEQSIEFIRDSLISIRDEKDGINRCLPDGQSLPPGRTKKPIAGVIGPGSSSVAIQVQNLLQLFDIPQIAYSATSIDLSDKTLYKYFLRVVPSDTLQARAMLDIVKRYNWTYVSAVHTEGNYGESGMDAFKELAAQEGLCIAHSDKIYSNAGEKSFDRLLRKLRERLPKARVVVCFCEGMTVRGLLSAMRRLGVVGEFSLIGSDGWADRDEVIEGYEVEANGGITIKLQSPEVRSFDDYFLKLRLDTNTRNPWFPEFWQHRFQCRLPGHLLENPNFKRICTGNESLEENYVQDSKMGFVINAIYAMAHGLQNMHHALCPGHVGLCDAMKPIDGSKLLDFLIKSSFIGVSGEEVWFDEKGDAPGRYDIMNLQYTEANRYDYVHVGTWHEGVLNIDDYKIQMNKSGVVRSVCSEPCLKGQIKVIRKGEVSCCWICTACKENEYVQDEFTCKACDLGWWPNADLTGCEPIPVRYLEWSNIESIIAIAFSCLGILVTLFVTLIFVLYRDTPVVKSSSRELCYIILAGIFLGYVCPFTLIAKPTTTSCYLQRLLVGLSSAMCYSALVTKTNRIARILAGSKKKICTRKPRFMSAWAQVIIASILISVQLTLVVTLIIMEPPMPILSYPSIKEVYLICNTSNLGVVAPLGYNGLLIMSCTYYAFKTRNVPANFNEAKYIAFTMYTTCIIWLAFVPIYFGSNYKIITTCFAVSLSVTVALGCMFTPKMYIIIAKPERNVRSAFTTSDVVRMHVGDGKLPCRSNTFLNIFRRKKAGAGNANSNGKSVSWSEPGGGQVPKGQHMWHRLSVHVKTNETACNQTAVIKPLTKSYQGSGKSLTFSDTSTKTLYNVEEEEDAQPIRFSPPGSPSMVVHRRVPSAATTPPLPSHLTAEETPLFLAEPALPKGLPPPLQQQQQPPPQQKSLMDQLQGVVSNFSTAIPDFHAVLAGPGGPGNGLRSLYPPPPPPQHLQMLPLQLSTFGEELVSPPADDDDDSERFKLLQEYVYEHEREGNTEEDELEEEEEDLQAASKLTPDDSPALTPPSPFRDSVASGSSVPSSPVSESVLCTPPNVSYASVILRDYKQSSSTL
assay-procedure: IC50 determination: intracellular calcium mobilization (FLIPR) upon Quisqualate stimulation in CHO cells stably expressing hmGluR1
Type: cell-based
test-context: against Quisqualate 1 μM (EC80), FLIPR calcium mobilization, read-out: IC50 Class
measured-endpoint: IC50

Cc1ccc(-n2cnc3c(sc4nccc(NCCCO)c43)c2=O)cc1 [28CX] | < 0.05 µM
CN(C)c1cccc2sc3c(=O)n(-c4cccc(F)c4F)cnc3c12 [103O] | > 1 µM
Cc1ccc(-n2cnc3c(sc4cnnc(N(C)C)c43)c2=O)cc1 [167B] | 0.05 to 0.15 µM
CCNc1ccnc2sc3c(=O)n(-c4ccc(OC)cc4F)cnc3c12 [28BJ] | 0.05 to 0.15 µM
CC(=O)NN(C)c1ccnc2sc3c(=O)n(-c4ccc(C)cc4)cnc3c12 [73I] | 0.15 to 1 µM
CN(CC(O)CO)c1ccnc2sc3c(=O)n(-c4ccc(F)cc4)cnc3c12 (stereo not shown) [28HR] | 0.15 to 1 µM
CN(C)c1ncnc2sc3c(=O)n(-c4ccc(Br)cc4F)cnc3c12 [95AR] | < 0.05 µM
CN(CCO)c1ccnc2sc3c(=O)n(-c4ccc5c(c4)CCO5)cnc3c12 [28CL] | < 0.05 µM
C#CCNc1ccnc2sc3c(=O)n(-c4ccc(Br)cc4)cnc3c12 [28DP] | < 0.05 µM
CCNc1ncnc2sc3c(=O)n(-c4ccc(OC)c(F)c4)cnc3c12 [95BL] | < 0.05 µM
CNc1ncnc2sc3c(=O)n(-c4ccc(Br)cc4)cnc3c12 [95BD] | < 0.05 µM
CSCCNc1ncnc2sc3c(=O)n(-c4ccc(Cl)cc4)cnc3c12 [95FS] | < 0.05 µM
CNc1ccnc2sc3c(=O)n(-c4cccc(F)c4)cnc3c12 [28CO] | < 0.05 µM
O=c1c2sc3nccc(N4CC(O)C4)c3c2ncn1-c1ccc(Cl)cc1 [28DI] | 0.15 to 1 µM
COc1ncnc2sc3c(=O)n(-c4ccc(C)cc4)cnc3c12 [95FN] | 0.15 to 1 µM
O=c1c2sc3nccc(NCCO)c3c2ncn1-c1ccc(Br)cc1 [28GA] | < 0.05 µM
O=c1c2sc3nccc(NCCO)c3c2ncn1-c1ccc(Cl)cc1 [28GB] | < 0.05 µM
O=c1c2sc3nccc(NCCCCO)c3c2ncn1-c1ccc(Br)cc1 [28GV] | < 0.05 µM
COc1cc(-n2cnc3c(sc4nccc(N(C)C)c43)c2=O)ccc1F [28FW] | 0.15 to 1 µM
COCCNc1nncc2sc3c(=O)n(-c4ccc(C)cc4)cnc3c12 [167D] | > 1 µM
CSCCNc1ncnc2sc3c(=O)n(-c4ccc(C)cc4)cnc3c12 [95FR] | < 0.05 µM
C=CCCOc1ccnc2sc3c(=O)n(-c4ccc(Br)cc4)cnc3c12 [66K] | 0.15 to 1 µM
COc1ccnc2sc3c(=O)n(-c4ccc(Br)cc4)cnc3c12 [28FR] | < 0.05 µM
C#CCNc1ncnc2sc3c(=O)n(-c4ccc(Br)cc4)cnc3c12 [95EQ] | < 0.05 µM
CC(=O)NN(C)c1ccnc2sc3c(=O)n(-c4ccc(Cl)cc4)cnc3c12 [73H] | 0.15 to 1 µM
C=C(C)CNc1ccnc2sc3c(=O)n(-c4ccc(Br)cc4)cnc3c12 [28FC] | < 0.05 µM
Cc1ccc(-n2cnc3c(sc4ncnc(Nc5ccccc5)c43)c2=O)cc1F [95GB] | > 1 µM
O=c1c2sc3ncnc(NC4CC4)c3c2ncn1-c1ccc2ncsc2c1 [95AZ] | < 0.05 µM
C#CCNc1ncnc2sc3c(=O)n(-c4ccc5c(c4)OCO5)cnc3c12 [95EO] | 0.05 to 0.15 µM
O=c1c2sc3nccc(N4CCC4)c3c2ncn1-c1ccc(Cl)cc1 [28GJ] | 0.05 to 0.15 µM
Cc1ccc(-n2cnc3c(sc4nccc(NC(C)(C)C)c43)c2=O)cc1 [28EO] | 0.15 to 1 µM
O=c1c2sc3nccc(NC4CC4)c3c2ncn1-c1cccc(Cl)c1 [28CB] | 0.05 to 0.15 µM
COc1ncnc2sc3c(=O)n(-c4ccc(Cl)cc4)cnc3c12 [95FO] | 0.15 to 1 µM
O=c1c2sc3ncc(Br)c(NC4CC4)c3c2ncn1-c1ccc(Cl)cc1 [28EI] | 0.15 to 1 µM
